assay: clinical; settings: human, plasma, oral, 24 mg, T1/2, 24 mg q.d., cycle 1 Day 1, mean
PROPERTY: half-life (h)
Response body: numeric value in h, unit text excluded.

What value of half-life has been reported for the following compound? C=CC(=O)N1CC[C@H](n2nc(C#Cc3cc(OC)cc(OC)c3)c3c(N)ncnc32)C1
3.13

====

assay: clinical; conditions: human, plasma, oral, 80 mg, AUC0–last, 80 mg t.i.w., cycle 1 Day 1, mean
PROPERTY: AUC(0-t)
Provide the measurement as a number trailed by its unit.

What value of AUC(0-t) has been reported for the following compound? C=CC(=O)N1CC[C@H](n2nc(C#Cc3cc(OC)cc(OC)c3)c3c(N)ncnc32)C1 [futibatinib]
7470 ng·h/mL
